- ASSAY TARGET: T1, IL-18 binding protein (IL-18BP) (UniProt O95998 31-194)
- T1 sequence (looked up): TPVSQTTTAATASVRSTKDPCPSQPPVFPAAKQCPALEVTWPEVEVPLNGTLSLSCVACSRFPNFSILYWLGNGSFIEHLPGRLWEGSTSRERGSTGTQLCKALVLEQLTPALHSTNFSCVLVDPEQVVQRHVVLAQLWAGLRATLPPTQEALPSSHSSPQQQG
- ASSAY OVERVIEW: cell-based or functional assay
TEST READOUT: Ratio (-BP/+BP), DF-1000005
Number only, no unit.

Worked set:
• IL-18 variant G3Q, E6K, D54S, S55P, T63S, N91S, R104Q (ligand) YFQKLKSKLSVIRNLNDQVLFIDQGNRPLFEDMTDSDMRDNAPRTIFIISMYKSPQPRGMAVSISVKSEKISTLSSENKIISFKEMNPPDSIKDTKSDIIFFQQSVPGHDNKMQFESSSYEGYFLASEKERDLFKLILKKEDELGDRSIMFTVQNED = 1.24
• IL-18 variant G3N, E6S, K53Q, D54W, S55R, N91T, R104T (ligand) YFNKLSSKLSVIRNLNDQVLFIDQGNRPLFEDMTDSDMRDNAPRTIFIISMYQWRQPRGMAVTISVKSEKISTLSSENKIISFKEMNPPDTIKDTKSDIIFFQTSVPGHDNKMQFESSSYEGYFLASEKERDLFKLILKKEDELGDRSIMFTVQNED = 0.99
• IL-18 variant G3L, E6N, I22M, T63V, N91T, R104P (ligand) YFLKLNSKLSVIRNLNDQVLFMDQGNRPLFEDMTDSDMRDNAPRTIFIISMYKDSQPRGMAVVISVKSEKISTLSSENKIISFKEMNPPDTIKDTKSDIIFFQPSVPGHDNKMQFESSSYEGYFLASEKERDLFKLILKKEDELGDRSIMFTVQNED = 0.8
• IL-18 variant G3Q, E6S, S55V, T63A, N91T (ligand) YFQKLSSKLSVIRNLNDQVLFIDQGNRPLFEDMTDSDMRDNAPRTIFIISMYKDVQPRGMAVAISVKSEKISTLSSENKIISFKEMNPPDTIKDTKSDIIFFQRSVPGHDNKMQFESSSYEGYFLASEKERDLFKLILKKEDELGDRSIMFTVQNED = 1.68
• IL-18 variant G3I, E6Q, N91M, R104Y (ligand) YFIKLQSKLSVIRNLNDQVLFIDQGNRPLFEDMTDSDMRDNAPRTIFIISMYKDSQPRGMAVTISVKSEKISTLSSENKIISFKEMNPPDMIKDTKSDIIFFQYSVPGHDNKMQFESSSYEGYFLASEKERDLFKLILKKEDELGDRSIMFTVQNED = 1.15

input: Name the recorded Ratio (-BP/+BP), DF-1000005 for IL-18 variant G3S, E6Q, K53S, D54Y, S55H, N91L, R104Q (ligand) YFSKLQSKLSVIRNLNDQVLFIDQGNRPLFEDMTDSDMRDNAPRTIFIISMYSYHQPRGMAVTISVKSEKISTLSSENKIISFKEMNPPDLIKDTKSDIIFFQQSVPGHDNKMQFESSSYEGYFLASEKERDLFKLILKKEDELGDRSIMFTVQNED .
output: 0.95

input: // repeat for IL-18 variant G3H, E6Q, K53N, D54S, S55P, T63A, N91I, R104S (ligand) YFHKLQSKLSVIRNLNDQVLFIDQGNRPLFEDMTDSDMRDNAPRTIFIISMYNSPQPRGMAVAISVKSEKISTLSSENKIISFKEMNPPDIIKDTKSDIIFFQSSVPGHDNKMQFESSSYEGYFLASEKERDLFKLILKKEDELGDRSIMFTVQNED and report
output: 0.86

The measurements presented in this section are drawn from patent US20240182536A1.
